test system: peptidase of the present invention; assay type: biochemical, Saccharomyces cerevisiae
Non-standard residues stand in square brackets, D forms with d. Residues, ends and D or L forms follow the SMILES beside them. *: point of attachment. Sta = CC(C)C[C@H](N)[C@@H](O)CC(=O)O; Isovaleryl = CC(C)CC(=O)*
property-measured: Response to inhibitor (inhibition of the enzyme, in words)

* O=C(O)CI | inhibited neither
* Cc1ccc(S(=O)(=O)N[C@@H](CCCCN)C(=O)CCl)cc1 | inhibited neither
* O=C(O)CN(CCN(CC(=O)O)CC(=O)O)CC(=O)O | not inhibited
* O=C(O)c1cc[c]([Hg][Cl])cc1 | inhibited neither
* CC(=O)N[C@@H](CC(C)C)C(=O)N[C@@H](CC(C)C)C(=O)N[C@H](C=O)CCCNC(=N)N | inhibited neither
* CC(C)CC(=O)N[C@H](C(=O)N[C@H](C(=O)N[C@@H](CC(C)C)[C@@H](O)CC(=O)N[C@@H](C)C(=O)N[C@@H](CC(C)C)[C@@H](O)CC(=O)O)C(C)C)C(C)C [Pepstatin, pepstatin] (Isovaleryl-VV[Sta]A[Sta]-OH) | not inhibited

Now turn to the next molecule.
Just so you know, measured Response to inhibitor (inhibition of the enzyme, in words) for O=S(=O)(F)Cc1ccccc1 [PMSF, phenylmethylsulfonyl fluoride] came out at inhibited neither
